Tested on: SK-MEL-28 melanoma
Experiment: NCI-60 one-dose screen, 48 h (100 = growth as untreated, 0 = no growth, -100 = all killed)
Settings: 10 µM unless noted
About 83,000 compounds went through this panel and 20% of them were active in at least one assay; those are over-represented in the sample as a whole.
Reported growth values for the following compounds.
Hi! Could you send only the number? It should be in %, unit omitted.

Worked cases, answers included:
What is its growth for SK-MEL-28 melanoma? Entry: "Cc1cc(=O)oc2cc(OCCCOc3ccc(/C=C/C(=O)Nc4ccccc4N)cc3)ccc12"
32

Please do the same for CCOC(=O)C(N=Nc1ccc(S(=O)(=O)N=C(N)N)cc1)C(C)=O (centres undefined) as well.
109

Please do the same for "C[C@H]1CN(C(=O)c2ccc3c(NNC(=O)c4ccncn4)nc4cc(F)c(F)cc4n23)CCN1" as well.
31.1

Please do the same for O=C(C1=CNC(=S)NC1c1ccc(O)cc1)c1cc2ccccc2oc1=O (centres undefined) as well.
118

# context switch: different compound, same growth
What is its growth for SK-MEL-28 melanoma? Entry: "Clc1ccc(-c2ccc(OCCCN3CCN(c4ccncc4)CC3)cc2)cc1"
90.1

###

Test system: M14 melanoma
Assay: NCI-60 one-dose screen, 48 h
Conditions: 10 µM unless noted
Compounds without any hit were thinned out: in the full panel of roughly 83,000, 20% have a hit. Active and inactive are the calls of the source. The calls were made as follows: active = growth percent below 10; inactive = the rest.
Your reply should match one of these outcome classes. active, inactive

These recorded examples may help you get a feel for the data.
Returns: the outcome recorded for COc1cc(C2CC(c3ccc(S(=O)(=O)NCCNc4nc(Nc5ccc(F)cc5)nc(N(C)C)n4)cc3)=Nc3c(N)nc(N)nc3N2)cc(OC)c1OC (stereo not given) in this assay.
inactive

Please do the same for "CC(C)c1ccc2c(N)c(C(=O)Nc3cccc(C(F)(F)F)c3)sc2n1" as well.
inactive

Please do the same for C=C1CCC2C3(C)COC(c4ccc(F)cc4)OC3CCC2(C)C1CC(O)C1=CCOC1=O (stereo not given) as well.
inactive

Please do the same for "O=[N+]([O-])c1ccc(/C=C/c2nc3ccccc3n3c(=S)[nH]nc23)cc1" as well.
inactive

Please do the same for "COc1ccc(C(=O)/C=C/c2ccc(Oc3nc(Nc4ccc(F)cc4)nc(N(C)C)n3)c(OC)c2)cc1" as well.
inactive

***
Returns: the outcome recorded for "CC1=C(C#N)C2=NNCC(c3ccccc3)=NN2C(c2ccccc2)=C1" in this assay.
inactive

Please do the same for "CCCCSc1nc(NCCc2c[nH]c3ccccc23)c(C#N)c(-c2ccccc2)n1" as well.
inactive

Please do the same for "Nc1nc(-c2ccccc2)c(N=Nc2ccc([N+](=O)[O-])cc2Cl)s1" as well.
inactive

Please do the same for "N#Cc1c(-c2ccc(Br)cc2)nc2n[nH]c(-c3ccc(Br)cc3)c2c1-c1ccc(C(F)(F)F)cc1" as well.
inactive

Please do the same for "COc1ccc(/C=C/c2nc3ccccc3nc2Nc2cccc(C)c2)cc1" as well.
inactive

Please do the same for "COc1ccc(-c2cc(C(=O)NCc3ccccc3)nn2-c2ccc(S(C)(=O)=O)cc2)cc1OC" as well.
inactive

Please do the same for "CSc1ccc(NC(=O)c2ccc3nn(/C(C#N)=C/c4ccccn4)nc3c2)cc1" as well.
active

###

Reported growth values for the following compounds.
Test system: A498 renal
Experiment: NCI-60 one-dose screen, 48 h (100 = growth as untreated, 0 = no growth, -100 = all killed)
Conditions: 10 µM unless noted
Compounds without any hit were thinned out: in the full panel of roughly 83,000, 20% have a hit. Active and inactive are the calls of the source. The calls were made as follows: active = growth percent below 10; inactive = the rest.

Worked cases, answers included:
Give its growth value. Item: "COc1ccc(/C=C/c2n(Cc3ccc4ccccc4c3)c3ccccc3[n+]2Cc2ccc3ccccc3c2)cc1"
-79.8% (active)

Please do the same for "NS(=O)(=O)c1ccc(-n2cc(-c3cccc(NC(=O)c4ccc(Cl)c(C(F)(F)F)c4)c3)nn2)cc1" as well.
91.1% (inactive)

Please do the same for "CC(=O)c1cc(C(=O)c2ccccc2)n2c1ccc1ccccc12" as well.
129% (inactive)

Please do the same for COc1cc(NC(=O)c2cccc(C3CCc4c(cc(OC)c(OC)c4OC)O3)c2)cc(OC)c1OC (centres undefined) as well.
112% (inactive)

Please do the same for "O=C(COc1ccc(NC(=O)Nc2ccc(Cl)cc2)cc1)N/N=C/c1ccccc1" as well.
-94.3% (active)

Please do the same for COc1cc(C2CC(c3cc(OC)c(OC)c(OC)c3)=NN2C(C)=O)ccc1OCc1ccc(F)cc1 (centres undefined) as well.
59.4% (inactive)

***
Give its growth value. Item: "O=C(O)Cn1c(O)c(/C=C2/C=c3cc4c(cc3=NC2=O)OCCO4)sc1=S"
118% (inactive)

Please do the same for "COc1ccc2[nH]cc(-c3nc(N)nnc3-c3cn(C)c4ncccc34)c2c1" as well.
104% (inactive)

Please do the same for "COc1ccc2[nH]c(O)c(N=NC(=O)Cn3c(-c4ccccc4)nc4cc(C)ccc43)c2c1" as well.
119% (inactive)

###

System: NCI-H23 lung
Test: NCI-60 one-dose screen, 48 h
Details: 10 µM unless noted
The panel holds about 83,000 compounds, 20% with a hit somewhere; the sample as a whole holds those more often. The source made the active and inactive calls. The calls were made as follows: active = growth percent below 10; inactive = the rest.
Your reply should match one of these outcome classes. yes (1) = active, no (0) = inactive

These recorded examples may help you get a feel for the data.
Returns: the outcome recorded for "COc1ccc(C(=O)/C=C/c2cccc(Cl)c2)cc1S(N)(=O)=O" in this assay.
yes (1)

Please do the same for COc1cc2c(c(OC)c1OC)C(=O)CC(c1cccc(NC(=O)c3cccc([N+](=O)[O-])c3)c1)O2 (stereo not drawn) as well.
no (0)

Please do the same for "N#Cc1c(-c2ccc(Cl)cc2)nc2n[nH]c(-c3ccc(Cl)cc3)c2c1-c1cccs1" as well.
no (0)

Please do the same for C=C1CC[C@@H]2[C@]3(C)COC(c4ccco4)O[C@@H]3CC[C@@]2(C)[C@@H]1C/C=C1/C(=O)OCC1OC(C)=O (stereo partly drawn) as well.
no (0)

Please do the same for COc1cc(C2CC(c3cc(OC)c(OC)c(OC)c3)=NN2C(C)=O)ccc1OCc1ccc(F)cc1 (stereo not drawn) as well.
no (0)

Please do the same for "COc1ccc(-c2nc(SC(C)C)nc(NCCc3c[nH]c4ccccc34)c2C#N)cc1" as well.
no (0)

Please do the same for CC1CCCCN1CCCNC(=O)N/C(N)=N/c1nc2ccccc2s1 (stereo not drawn) as well.
no (0)

Please do the same for "Cc1ccc(-c2nnc3ccc(N/N=C/c4ccccc4)nn23)cc1" as well.
no (0)

Please do the same for "CCCCCCCCOc1cccc(S(=O)(=O)Nc2ccc(C)cc2C(=O)O)c1" as well.
no (0)

Please do the same for CCOC(=O)/C=C/c1cccc2c1C(=O)NC(C)(c1cc3cc(Cl)ccc3oc1=O)N2 (stereo not drawn) as well.
no (0)

Switching to the query record.
Returns: the outcome recorded for CC1=C(C(=O)c2ccccc2)C(c2cccc3ccccc23)n2c(nc3ccccc32)N1 (stereo not drawn) in this assay.
no (0)

###

Reported growth values for the following compounds.
Tested on: IGROV1 ovarian
Test: NCI-60 one-dose screen, 48 h (100 = growth as untreated, 0 = no growth, -100 = all killed)
Conditions: 10 µM unless noted
Compounds without any hit were thinned out: in the full panel of roughly 83,000, 20% have a hit.
Hi! Could you send only the number? It should be in %, unit omitted.

Worked cases, answers included:
Give its growth value. Item: "CC(C)CSc1nc(NCCc2c[nH]c3ccccc23)c(C#N)c(-c2ccccc2)n1"
104

Please do the same for "CN(C)CCCNC(=O)c1cc(NC(=O)c2cc(NC(=O)c3ccc(/C=C/c4ccccc4)cc3)cn2C)cn1C" as well.
78.3

Please do the same for "Cc1ccc(-c2nc(C#N)c(S(=O)(=O)N3CCN(S(=O)(=O)c4ccc(Cl)cc4)CC3)o2)cc1" as well.
95.8

Please do the same for "COc1ccc(-c2ccnc(SCc3cc4cc(Cl)ccc4[nH]c3=O)n2)cc1" as well.
95.8

# context switch: different compound, same growth
Give its growth value. Item: CCN1C(=O)N(CC)C2NNC(Sc3c(C(=O)O)c4ccccc4n(C4CCCC4)c3=O)=NC21 (stereo not given)
29.6

###

Test system: MOLT-4 leukemia
Assay: NCI-60 one-dose screen, 48 h (100 = growth as untreated, 0 = no growth, -100 = all killed)
Conditions: 10 µM unless noted
The panel holds about 83,000 compounds, 20% with a hit somewhere; the sample as a whole holds those more often.
REPORTED_ENDPOINT: growth (%)
Hi! Could you send only the number? It should be in %, unit omitted.

Worked cases, answers included:
Give its growth value. Item: C=C1CCC2C3(C)COC(c4ccc(F)cc4)OC3CCC2(C)C1CC(O)C1=CCOC1=O (stereo not given)
22.5

Please do the same for "Cc1ccc(S(=O)(=O)c2nc(S(=O)(=O)c3ccc(C)cc3)c(Cl)s2)cc1" as well.
16.6

***
Give its growth value. Item: CC1(C)CC[C@]2(C(=O)O)CC[C@]3(C)C(=CCC4[C@@]5(C)C[C@@H](O)[C@@H]6OC(c7ccccc7Br)OC[C@@]6(C)C5CC[C@]43C)C2C1 (stereo not given in full)
10.5

Please do the same for "O=C(O)c1cccc(-c2ccc(/C=N/NC(=O)c3[nH]c4ccc(Br)cc4c3-c3ccccc3)o2)c1" as well.
63.6

Please do the same for COc1ccc2oc(=O)c(C3(C)NC(=O)c4c(/C=C/C(=O)OC(C)(C)C)cccc4N3)cc2c1 (stereo not given) as well.
18.1

Please do the same for "C#CCOc1ccc(/C=N/Nc2nc(-c3cc4cc(Br)ccc4oc3=O)cs2)cc1OC" as well.
92.8

Please do the same for "Cc1ccc2c(c1)nc(-c1ccccc1)n2CC(=O)N=Nc1c(O)[nH]c2ccc(Br)cc12" as well.
-42.1

Please do the same for "COc1cccc(COc2ccc(NC(=O)Nc3ccc(Cl)c(C(F)(F)F)c3)cc2)c1" as well.
28.1

Just for reference, PubChem BioAssay (NCI) is where these values come from.
